The measured values listed here are drawn from PubChem BioAssay (NCI).

Form field: GI50 (one value per entry).
# Tested on: BT-549 breast
# methodSummary: NCI tumour cell line growth inhibition, 48 h
endpointLabel: GI50

compound=COc1ccc2c(c1)[n+](=O)c(C(=O)c1ccco1)c(C(F)(F)F)n2[O-] testvalue="2.64 µM"
compound=COC(=O)[C@]12CC[C@@H](C)[C@H](C)[C@@H]1C1=CC[C@@H]3[C@@]4(C)C(C=O)=C[C@@](C)(COC(C)=O)C4=CC[C@@]3(C)[C@]1(C)CC2 testvalue="6.9 µM"
compound=Nc1nc2c(s1)CCc1c-2c(Br)n(Cc2ccccc2)c1Br testvalue="15.1 µM"
compound=O=[N+]([O-])c1ccccc1N/N=C\c1c[nH]c2ccccc12 testvalue="> 21.5 µM"
compound=Clc1ccc2c(c1)N(CCCN1CCCC1)c1ccccc1S2 testvalue="11.8 µM"
compound=C/C(=C\CCc1ccoc1)CC/C=C(\C)CCCN1CCOCC1 testvalue="1.88 µM"
compound="CC(C)(C)C(=O)OCOP(=O)(OCOC(=O)C(C)(C)C)C1CC(O)N(O)C1=O (configuration not stated)" testvalue="2.96 µM"

* * *

# Tested on: M14 melanoma
# methodSummary: NCI tumour cell line growth inhibition, 48 h
endpointLabel: TGI

compound="OC1CCOc2ccccc21 (centres undefined)" testvalue="> 100 µM"
compound="NC(=O)CCC(N=C(N)c1csc(C2OC(CO)C(O)C2O)n1)C(=O)O (centres undefined)" testvalue="> 100 µM"
compound=CC1=NOC(=O)/C1=C/c1cccc2ccccc12 testvalue="> 100 µM"
compound="Cc1ccc(C(SCC(N)C(=O)O)(c2ccc(C)cc2)c2ccc(C)cc2)cc1 (centres undefined)" testvalue="2.37 µM"
compound=CC1(C)Cc2c(C#N)c(N)c3c(c2CO1)C(=O)OC3=O testvalue="> 100 µM"
compound=COCCCNC(=O)C1=C(C)NC(C)=C(C(=O)NCCCOC)C1 testvalue="> 100 µM"
compound=CC(=O)c1cc(C(=O)c2ccc3c(c2)Sc2ccccc2N3)c2c(C)cc(C)cn12 testvalue="> 100 µM"
compound=CCCCCCOc1ccc(C(=O)NO)cc1 testvalue="34 µM"
compound=CC(C)(C)OC(=O)NCCc1cccc2c1oc1c(CCC(=O)O)cccc12 testvalue="> 100 µM"
compound=Cc1cc2c(cc1C)[n+](=O)c(C(=O)C/C(=N/OCCCc1ccccc1)C(=O)Nc1cc(Cl)ccc1Cl)c(C)n2[O-] testvalue="> 100 µM"
compound=O=C(O)c1cc(/C=C/c2cc(O)ccc2O)ccc1O testvalue="> 10 µM"
compound=NCCN1C(=O)CN=C(c2ccc(Cl)cc2)c2cc(Cl)ccc21 testvalue="30.3 µM"
compound=CO/N=C(\C(=O)N(C)n1cnnc1)c1csc(NC(c2ccccc2)(c2ccccc2)c2ccccc2)n1 testvalue="> 10 µM"
compound=O=C(c1ccccc1)N1C2CCC1C(C(F)(F)F)=C2C(F)(F)F testvalue="> 100 µM"

* * *

# Tested on: SK-MEL-2 melanoma
# methodSummary: NCI tumour cell line growth inhibition, 48 h
endpointLabel: TGI

compound=Nc1nc(OCc2cc(Br)cs2)c2[nH]cnc2n1 testvalue="81.3 µM"
compound=CC[P+](C)(C)c1ccccc1 testvalue="> 100 µM"
compound=C[C@H](Nc1ncnc2nc[nH]c12)c1cc2ccc(F)cc2nc1-c1ccccn1 testvalue="> 100 µM"
compound=COc1ccc(C(=O)COC(=O)[C@H](C[Se][Se]C[C@H](NC(=O)c2ccc(Br)cc2F)C(=O)OCC(=O)c2ccc(OC)cc2)NC(=O)c2ccc(Br)cc2F)cc1 testvalue="2.57 µM"
compound=C=CCSC1=N/C(=C\c2cccs2)C(=O)N1CC=C testvalue="> 100 µM"
compound="Nc1ccn(C2CCC(CO)O2)c(=S)n1 (configuration not stated)" testvalue="> 100 µM"
compound=CC1=NOC(=O)/C1=C/c1cccc2ccccc12 testvalue="> 100 µM"
